# procedure.summary: Ubiquitin-GFP Assay
# condition.details: Ubiquitin-GFP reporter cells, proteasome inhibition, GFP fluorescence, untreated = 0%, 10 µM MG-132 = 100%; series mostly up to 45.9 µM
In all, about 67,000 compounds went through this assay and fewer than 10 were called active. These entries were drawn from the full list.
reported.endpoint: activation (GFP accumulation)

# compound, reported.endpoint, result
rows = [
    ("O=C(O)[C@@H](S)[C@H](S)C(=O)O", "activation (GFP accumulation)", "4.35% [at 9.17 µM] (inactive)"),
    ("COCCn1c(=O)c(CCc2ccccc2)nc2cnc(N3CCNCC3)nc21", "activation (GFP accumulation)", "inactive"),
    ("COc1ccc(-c2cc(C(F)(F)F)nc(SCCC(=O)NCc3ccco3)n2)cc1", "activation (GFP accumulation)", "inactive"),
    ("O=C(O)CN(Cc1ccco1)S(=O)(=O)c1ccccc1", "activation (GFP accumulation)", "inactive"),
    ("CN(C)CC/C=C1\\c2ccccc2CSc2ccccc21", "activation (GFP accumulation)", "inactive"),
    ("CCCSC1=C(C#N)C(c2ccccc2C)C(C(=O)OC)C(=O)N1 (stereo unspecified)", "activation (GFP accumulation)", "inactive"),
    ("CCOCCCNS(=O)(=O)Cc1ccccc1", "activation (GFP accumulation)", "inactive"),
    ("CCCCNc1nc(C)nc2c1nc(-c1ccccc1)n2CCCCN(CC)CC", "activation (GFP accumulation)", "inactive"),
    ("COC(=O)c1ccc2c(c1)S(=O)(=O)NC(=NCCCN1CCOCC1)S2", "activation (GFP accumulation)", "inactive"),
    ("O=C(C1CCC1)N1CCc2cc(S(=O)(=O)NCc3cccnc3)ccc21", "activation (GFP accumulation)", "inactive"),
    ("COC(=O)c1cc(NC(=O)CN2CCC(C(N)=O)(N3CCCCC3)CC2)cc(C(=O)OC)c1", "activation (GFP accumulation)", "inactive"),
    ("CC(C)(CSc1nncn1/N=C/c1ccco1)NS(=O)(=O)c1ccc(Cl)cc1", "activation (GFP accumulation)", "inactive"),
    ("CCCCC(=O)Nc1ccc(C(=O)NCCCn2ccnc2)cc1", "activation (GFP accumulation)", "inactive"),
    ("COC(=O)C1(S(=O)(=O)C2(C(=O)OC)CCCC2)CCCC1", "activation (GFP accumulation)", "inactive"),
    ("Cc1c(NC(=O)c2cccnc2)c(=O)n(-c2ccccc2)n1C", "activation (GFP accumulation)", "inactive"),
    ("O=S(=O)(O)c1ccc(O)c2ncccc12.O=S(=O)(O)c1ccc(O)c2ncccc12.[Zn]", "activation (GFP accumulation)", "2.9% [at 9.17 µM] (inactive)"),
    ("O=C(C1CCN(S(=O)(=O)c2cnc[nH]2)CC1)N1CCN(Cc2ccc3c(c2)OCO3)CC1", "activation (GFP accumulation)", "inactive"),
    ("Cc1ccc(CNC(=O)C2CC(=O)N(C3CCCCCCC3)C2)cc1 (stereo unspecified)", "activation (GFP accumulation)", "inactive"),
    ("Cc1cc(C(F)(F)F)nn1CC(=O)N1CCCC1", "activation (GFP accumulation)", "inactive"),
    ("COc1ccccc1N1CCN(C[C@@H]2CN3C(=O)N(C)c4ccccc4C3=N2)CC1", "activation (GFP accumulation)", "inactive"),
    ("COc1ccc(-c2noc(CN(C)S(=O)(=O)c3ccc(C)cc3)n2)cc1", "activation (GFP accumulation)", "inactive"),
    ("Cc1ccc(NC(=O)NCC(c2cccnc2)N2CCOCC2)cc1 (stereo unspecified)", "activation (GFP accumulation)", "inactive"),
    ("COc1ccccc1NC(=O)CSc1nnc(Cc2cccn2C)n1-c1ccc(F)cc1", "activation (GFP accumulation)", "inactive"),
    ("COc1ccc(N2C(=O)c3cccc4cccc(c34)C2=O)nn1", "activation (GFP accumulation)", "inactive"),
    ("CC(=O)N1CCC2(CCCN(Cc3ccc(C#N)cc3)C2)CC1", "activation (GFP accumulation)", "inactive"),
    ("COc1ccc(C(=O)n2nc(-c3ccc(C)cc3)nc2N)cc1OC", "activation (GFP accumulation)", "inactive"),
    ("CC1=C(C(=O)OC2CCCCC2)C(c2cccnc2)n2ncnc2N1 (stereo unspecified)", "activation (GFP accumulation)", "inactive"),
    ("CCOC(=O)c1cc2cc(C)ccc2[nH]1", "activation (GFP accumulation)", "inactive"),
    ("CCCCN(CCCC)C(=O)CCS(=O)(=O)c1ccc2c(c1)n(C)c(=O)c(=O)n2C", "activation (GFP accumulation)", "inactive"),
    ("CC(N)=NCc1cccc(CN)c1", "activation (GFP accumulation)", "inactive"),
    ("O=C(NC(c1ccccc1)c1ccccc1)N1CCN(CCO)CC1", "activation (GFP accumulation)", "inactive"),
]

###

# procedure.summary: Ubiquitin-GFP Assay
# condition.details: Ubiquitin-GFP reporter cells, proteasome inhibition, GFP fluorescence, untreated = 0%, 10 µM MG-132 = 100%; series mostly up to 45.9 µM
Hit rate of the full screen: of about 67,000 compounds, fewer than 10 were called active. Not all results are given here.

# compound, activation (GFP accumulation)
rows = [
    ("CC(C)[C@H](CO)Nc1nc(Nc2cc(N)cc(Cl)c2)c2ncn(C(C)C)c2n1", "inactive"),
    ("COC(=O)C(C)Sc1ccc2nnc(-c3cccc(F)c3)n2n1 (stereo not given)", "inactive"),
    ("CC[N+](C)(CC)CCC[n+]1c(-c2ccccc2)c2cc(N)ccc2c2ccc(N)cc21", "inactive"),
    ("NC(=S)c1ccc(C(N)=S)o1", "inactive"),
    ("Cc1ccc(Cn2ccc(NC(=O)C3C4CCC(C4)C3C(=O)O)n2)cc1 (stereo not given)", "inactive"),
    ("COC(=O)Cn1c(=NC(=O)CSCC(=O)Nc2cc(C)on2)sc2ccccc21", "inactive"),
    ("COc1ccccc1-n1nnnc1S(=O)(=O)Cc1ccc(Cl)cc1", "inactive"),
    ("c1ccc(CCN2CCN=C2Cc2ccccc2)cc1", "-3.08% [at 9.17 µM] (inactive)"),
    ("COc1ccc(NC(C)=O)cc1NC(=O)CN1CCN(C2c3ccccc3-c3ccccc32)CC1", "inactive"),
    ("CC(C)(O/N=C(\\C(=O)N[C@@H]1C(=O)N2C(C(=O)[O-])=C(C[n+]3ccccc3)CS[C@@H]12)c1csc(N)n1)C(=O)O", "inactive"),
]

###

# procedure.summary: Ubiquitin-GFP Assay
# condition.details: Ubiquitin-GFP reporter cells, proteasome inhibition, GFP fluorescence, untreated = 0%, 10 µM MG-132 = 100%; series mostly up to 45.9 µM
The whole screen tested about 67,000 compounds, of which fewer than 10 were called active. These entries were drawn from the full list.

# compound, activation (GFP accumulation)
records = [
    ("CN(C)c1ccnc2sc3c(=O)n(Cc4ccccc4)cnc3c12", "inactive"),
    ("CCC(c1nnnn1Cc1ccco1)N(CCc1ccccc1)Cc1cc2cccc(C)c2[nH]c1=O (stereo unspecified)", "inactive"),
    ("COc1ccccc1CN1CC2(CCN(S(=O)(=O)c3ccccc3)CC2)C1", "inactive"),
    ("Cc1cc(C(=O)O)c(S(C)(=O)=O)s1", "inactive"),
    ("O=C(O)C1=CCCN(CCON=C(c2ccccc2)c2ccccc2)C1", "inactive"),
    ("Cc1ccc(C)c2[nH]c(=O)c(CCNC(=O)CC(C)C)cc12", "inactive"),
    ("CCCn1c(C(O)c2cc(OC)ccc2OC)nc2ccccc21 (stereo unspecified)", "inactive"),
    ("Cc1cc(C)c2nc3c(c([C@H](O)[C@@H]4CCCCN4)c2c1)CC/C3=C/c1ccc(Cl)cc1", "1.75% [at 9.17 µM] (inactive)"),
    ("COc1cccc(Cn2c(=O)c(C)nc3cnc(Oc4ccccc4)nc32)c1", "inactive"),
    ("Cn1c(NC(=O)c2ccc3c(c2)OCO3)cc(=O)n(C)c1=O", "inactive"),
    ("O=C(Nc1c[nH]c(=O)[nH]c1=O)Oc1ccccc1", "7.84% [at 9.17 µM] (inactive)"),
]

###

# procedure.summary: Ubiquitin-GFP Assay
# condition.details: Ubiquitin-GFP reporter cells, proteasome inhibition, GFP fluorescence, untreated = 0%, 10 µM MG-132 = 100%; series mostly up to 45.9 µM
Out of some 67,000 compounds screened, fewer than 10 were called active. These entries were drawn from the full list.

# molecule, activation (GFP accumulation)
data = [
    ("O=C(CN1CCOCC1)N1CCCc2c1c(=O)oc1ccc(OCc3ccccc3)cc21", "inactive"),
    ("CC(C(=O)O)N1C(=O)c2cccc3cccc1c23 (stereo unspecified)", "inactive"),
    ("Cc1nc(N2CCN(c3ncccn3)CC2)c2oc3ccccc3c2n1", "inactive"),
    ("O=C(O)[C@H](CCc1ccccn1)c1ccccc1", "-6.91% [at 9.17 µM] (inactive)"),
    ("COc1ccccc1-c1cc(NCc2cccs2)ncn1", "inactive"),
    ("CC(=O)OCC(=O)[C@@]1(O)CC[C@@H]2[C@H]3CCC4=CC(=O)C=C[C@]4(C)[C@]3(F)[C@@H](O)C[C@@]21C", "inactive"),
    ("CC(C)(C)Nc1c(N)c(=O)oc2ccccc12", "-4.55% [at 9.17 µM] (inactive)"),
    ("Cc1ccc(S(=O)(=O)c2nc(NCCCn3ccnc3)sc2Cl)cc1", "inactive"),
    ("Cc1cccc(N2CCN(Cc3c(C)n(C)n(-c4ccccc4)c3=O)CC2)c1C", "-18.2% [at 9.17 µM] (inactive)"),
    ("COc1cccc(-c2cc(NCCc3c[nH]c4ccc(OC)cc34)ncn2)c1", "inactive"),
    ("CC(C)NS(=O)(=O)c1ccc(CCC(=O)N2CCOCC2)cc1", "inactive"),
    ("CC(C)NC[C@H](O)c1ccc2ccccc2c1", "inactive"),
    ("Cc1ccccc1CSc1nnc(-c2ccccn2)n1N", "inactive"),
    ("CCCn1c(-c2ccc(F)cc2)nc2c(NC3CCN(Cc4ccccc4)C3)nc(C)nc21 (stereo unspecified)", "inactive"),
    ("COCC(=O)Nc1nnc(COc2ccccc2)s1", "inactive"),
    ("CN(C(=O)CN(CCO)CC(=O)N(C)C(C)(C)Cc1ccccc1)C(C)(C)Cc1ccccc1", "inactive"),
    ("CN(C)CCSS(=O)(=O)O", "9.1% [at 9.17 µM] (inactive)"),
    ("O=C(CN1CCN(C2CCCCC2)CC1)Nc1ccccc1N1CCCCC1", "inactive"),
    ("C1=C(N2CCOCC2)/C(=C/c2nc3ccccc3[nH]2)CC1", "-10.8% [at 9.17 µM] (inactive)"),
    ("CC(=O)N1CCC2(CC1)CCN(c1ccncc1)CC2", "inactive"),
    ("CC1(C)NC(=O)N(CCOc2cccc(Oc3ccccc3)c2)C1=O", "inactive"),
    ("O=C(NCc1cccs1)C1CCN(S(=O)(=O)c2ccc3c(c2)OCCO3)CC1", "inactive"),
    ("NCC(=O)[C@@H](O)[C@H](O)[C@H](O)CO", "1.45% [at 9.17 µM] (inactive)"),
    ("CCOC(=O)N1CCN(C(=O)Cc2ccc(-n3c(=S)[nH]c4ccccc4c3=O)cc2)CC1", "inactive"),
    ("Cc1onc(-c2ccccc2Cl)c1C(=O)NCCn1ccc2ccccc21", "inactive"),
    ("CCC(=O)N1c2ccc(S(=O)(=O)CCC(=O)N3CCN(c4ccccc4)CC3)cc2CC1C (stereo unspecified)", "inactive"),
    ("c1ccc(CSCCc2ccncc2)cc1", "0.403% [at 9.17 µM] (inactive)"),
    ("CN(C)c1ccc(CNC23CN4CN(CN(C4)C2)C3)cc1", "inactive"),
    ("Cc1ccc(-c2cc(C(F)(F)F)n3nc(C(=O)N4CCCC4)cc3n2)cc1", "6.67% [at 9.17 µM] (inactive)"),
    ("O=C(CCN1C(=O)c2ccccc2C1=O)Nc1ccncc1", "inactive"),
    ("CCc1cc(Br)ccc1NC(=O)C1CCCO1 (stereo unspecified)", "inactive"),
    ("CN1[C@@H]2CC[C@H]1CC(NC(=O)c1nn(C)c3ccccc13)C2 (stereo partly specified)", "inactive"),
    ("C[N+](C)(C)CCCCCNCC12CC3CC(CC(C3)C1)C2", "inactive"),
    ("N#CCCn1cnc2ccccc21", "inactive"),
    ("COc1ccccc1-n1c(CNC(=O)c2ccccc2)nnc1SCC(=O)Nc1nnc(C)s1", "inactive"),
    ("CN1C(=O)C[C@H](c2ccccc2)C1=O", "inactive"),
    ("CCn1c(=N)c(C(=O)NCCCOC)cc2c(=O)n3cccc(C)c3nc21", "inactive"),
    ("O=C(Nc1cccc(F)c1)N1CCC2(CC1)CCN(S(=O)(=O)c1ccccc1)CC2", "inactive"),
    ("O=C(O)/C(=C/c1c(C(=O)O)[nH]c2cc(Cl)cc(Cl)c12)c1ccccc1", "inactive"),
    ("N#CCCn1c(=O)c(-c2cc(F)cc(F)c2)nc2cnc(Oc3ccccc3)nc21", "inactive"),
    ("CCN(CC)CCCCn1c(-c2ccccc2)nc2c(N3CCOCC3)nc(C)nc21", "inactive"),
    ("CCn1nnc(NC(=O)c2cc(Cl)c(OC)c(Cl)c2)n1", "inactive"),
    ("O=C(O)Cc1ccc(-c2ccccc2)cc1", "inactive"),
    ("Cc1ccc2cccc(O)c2[n+]1[O-]", "inactive"),
    ("Nc1cc(OC(=O)c2ccccc2Br)nn1S(=O)(=O)c1ccccc1", "inactive"),
    ("Cc1cc(=O)n2nc(N3CCCC(C(=O)N4CCN(C)CC4)C3)sc2n1 (stereo unspecified)", "inactive"),
]

Measured values drawn from PubChem BioAssay AID526 for this set.
